The reported numbers originate from ChEMBL document CHEMBL1137007.

Overview of reported Activity across a group of compounds:
system: Rattus norvegicus; assay: Antiinflammatory activity in rat assessed as inhibition of carrageenan-induced paw oedema at 20 mg/kg, po after 2 hrs; format: functional; set-up: scale not given: the % may be the effect or the level left
Please reply with the bare figure in % and do not write the unit itself.

Fill in the blank: the reported Activity of Nc1nc(=O)[nH]c2nc3[nH]c(=S)[nH]c(=O)c3c(-c3ccc(N4CCCCC4)cc3)c12 is ____.
48

Fill in the blank: the reported Activity of CN1CCN(c2ccc(-c3c4c(=O)[nH]c(=S)[nH]c4nc4[nH]c(=S)sc(=N)c34)cc2)CC1 is ____.
46

Fill in the blank: the reported Activity of CN1CCN(c2ccc(-c3c4c(N)ncnc4nc4[nH]c(=S)[nH]c(=O)c34)cc2)CC1 is ____.
50

Fill in the blank: the reported Activity of Nc1ncnc2nc3[nH]c(=S)[nH]c(=O)c3c(-c3ccc(N4CCCCC4)cc3)c12 is ____.
48

Fill in the blank: the reported Activity of N=c1sc(=S)[nH]c2nc3[nH]c(=S)[nH]c(=O)c3c(-c3ccc(N4CCCCC4)cc3)c12 is ____.
46

Fill in the blank: the reported Activity of Nc1nc(=S)[nH]c2nc3[nH]c(=S)[nH]c(=O)c3c(-c3ccc(N4CCOCC4)cc3)c12 is ____.
49

Fill in the blank: the reported Activity of Cc1nc2nc3[nH]c(=S)[nH]c(=O)c3c(-c3ccc(N4CCCCC4)cc3)c2c(=O)[nH]1 is ____.
41

Fill in the blank: the reported Activity of Nc1ncnc2nc3[nH]c(=S)[nH]c(=O)c3c(-c3ccc(N4CCOCC4)cc3)c12 is ____.
49

Fill in the blank: the reported Activity of N#Cc1c(N)nc2[nH]c(=S)[nH]c(=O)c2c1-c1ccc(N2CCCCC2)cc1 is ____.
51

Fill in the blank: the reported Activity of O=C([O-])Cc1ccccc1Nc1c(Cl)cccc1Cl.[Na+] [DICLOFENAC SODIUM] is ____.
60
